- System: Staphylococcus chromogenes
- assay.name: Antibacterial activity against Staphylococcus chromogenes incubated for 16 to 20 hrs by broth microdilution method
- Type: functional
- assay.context: time 16-20 hrs
recorded.endpoint: MIC (µg/mL)

compound: CC[C@H]1OC(=O)C[C@@H](O)[C@H](C)[C@@H](O[C@@H]2O[C@H](C)[C@@H](O)[C@H](N(C)C)[C@H]2O)[C@@H](CCN(C)Cc2cn(-c3cnc4ccccc4c3)nn2)C[C@@H](C)C(=O)/C=C/C(C)=C/[C@@H]1CN1CCCCC1
unit.name: µg/mL
observed.measurement: 0.5
--
compound: CCCN1C[C@H](C)[C@@H](O)[C@](C)(O)[C@@H](CC)OC(=O)[C@H](C)[C@@H](O[C@H]2C[C@](C)(OC)[C@H](O)[C@@H](C)O2)[C@H](C)[C@@H](O[C@@H]2O[C@H](C)C[C@H](N(C)C)[C@H]2O)[C@](C)(O)C[C@H]1C
unit.name: µg/mL
observed.measurement: 8
--
compound: C[C@@H](O)[C@H]1C(=O)N2C(C(=O)O)=C(S[C@@H]3CN[C@H](C(=O)N(C)C)C3)[C@H](C)[C@H]12 [MEROPENEM]
unit.name: µg/mL
observed.measurement: 0.0625
--
compound: NC[C@H]1O[C@H](O[C@H]2[C@H](O)[C@@H](O[C@H]3O[C@H](CO)[C@@H](O)[C@H](N)[C@H]3O)[C@H](N)C[C@@H]2N)[C@H](N)C[C@@H]1O [TOBRAMYCIN]
unit.name: µg/mL
observed.measurement: 2
--
compound: CC[C@H]1OC(=O)C[C@@H](O)[C@H](C)[C@@H](O[C@@H]2O[C@H](C)[C@@H](O)[C@H](N(C)C)[C@H]2O)[C@@H](CCN(C)Cc2cn(-c3cnc4ccccc4c3)nn2)C[C@@H](C)C(=O)/C=C/C(C)=C/[C@@H]1CN(C)C
unit.name: µg/mL
observed.measurement: 0.5
--
compound: CC[C@H]1OC(=O)C[C@@H](O)[C@H](C)[C@@H](O[C@@H]2O[C@H](C)[C@@H](O)[C@H](N(C)C)[C@H]2O)[C@@H](CCN2CCCCC2)C[C@@H](C)C(=O)/C=C/C(C)=C/[C@@H]1CN1CCCCC1 [TILDIPIROSIN]
unit.name: µg/mL
observed.measurement: 16

----------
- System: Escherichia coli
- assay.name: Antibacterial activity against Escherichia coli ATCC 25922 incubated for 16 to 20 hrs using 10^3 CFU/ml bacterial inoculum by broth microdilution method
- Format: functional
- assay.context: time 16-20 hrs
Listing: MIC of selected molecules

smiles.representation: C[C@@H](O)[C@H]1C(=O)N2C(C(=O)O)=C(S[C@@H]3CN[C@H](C(=O)N(C)C)C3)[C@H](C)[C@H]12
rel: <
MIC [µg/mL]: 0.0625
//
smiles.representation: CC[C@H]1OC(=O)C[C@@H](O)[C@H](C)[C@@H](O[C@@H]2O[C@H](C)[C@@H](O)[C@H](N(C)C)[C@H]2O)[C@@H](CCN2CCCCC2)C[C@@H](C)C(=O)/C=C/C(C)=C/[C@@H]1CN1CCCCC1
rel: =
MIC [µg/mL]: 0.5
//
smiles.representation: CC[C@H]1OC(=O)C[C@@H](O)[C@H](C)[C@@H](O[C@@H]2O[C@H](C)[C@@H](O[C@H]3C[C@@](C)(O)[C@@H](O)[C@H](C)O3)[C@H](N(C)C)[C@H]2O)[C@@H](CC=O)C[C@@H](C)C(=O)/C=C/C(C)=C/[C@@H]1CO[C@@H]1O[C@H](C)[C@@H](O)[C@@H](OC)[C@H]1OC
rel: >
MIC [µg/mL]: 32
//
smiles.representation: CC[C@H]1OC(=O)C[C@@H](O)[C@H](C)[C@@H](O[C@@H]2O[C@H](C)[C@@H](O)[C@H](N(C)C)[C@H]2O)[C@@H](CCN(C)Cc2cn(-c3cnc4ccccc4c3)nn2)C[C@@H](C)C(=O)/C=C/C(C)=C/[C@@H]1CN1CCCCCC1
rel: =
MIC [µg/mL]: 0.25

----------
- System: Staphylococcus aureus
- assay.name: Antibacterial activity against Staphylococcus aureus ATCC 29213 incubated for 16 to 20 hrs using 10^5 CFU/ml bacterial inoculum by broth microdilution method
- Type: functional
- assay.context: time 16-20 hrs
Reported values of MIC for individual entries
recorded.endpoint: MIC

smiles.representation: CC[C@H]1OC(=O)C[C@@H](O)[C@H](C)[C@@H](O[C@@H]2O[C@H](C)[C@@H](O[C@H]3C[C@@](C)(O)[C@@H](O)[C@H](C)O3)[C@H](N(C)C)[C@H]2O)[C@@H](CC=O)C[C@@H](C)C(=O)/C=C/C(C)=C/[C@@H]1CO[C@@H]1O[C@H](C)[C@@H](O)[C@@H](OC)[C@H]1OC
recorded.endpoint: MIC
observed.measurement: 0.5 mg/L

smiles.representation: CC[C@H]1OC(=O)C[C@@H](O)[C@H](C)[C@@H](O[C@@H]2O[C@H](C)[C@@H](O)[C@H](N(C)C)[C@H]2O)[C@@H](CCN(C)Cc2cn(-c3cnc4ccccc4c3)nn2)C[C@@H](C)C(=O)/C=C/C(C)=C/[C@@H]1CN1CCCCCC1
recorded.endpoint: MIC
observed.measurement: 0.125 mg/L

smiles.representation: CC[C@H]1OC(=O)C[C@@H](O)[C@H](C)[C@@H](O[C@@H]2O[C@H](C)[C@@H](O)[C@H](N(C)C)[C@H]2O)[C@@H](CCN2CCCCC2)C[C@@H](C)C(=O)/C=C/C(C)=C/[C@@H]1CN1CCCCC1
recorded.endpoint: MIC
observed.measurement: 2 mg/L

smiles.representation: CC(=O)NC[C@H]1CN(c2ccc(N3CCOCC3)c(F)c2)C(=O)O1
recorded.endpoint: MIC
observed.measurement: 0.5 mg/L

----------
# MIC values compiled below
- Test system: Escherichia coli
- assay.name: Antibacterial activity against Escherichia coli ATCC 25922 incubated for 16 to 20 hrs using 10^5 CFU/ml bacterial inoculum by broth microdilution method
- Assay type: functional
- assay.context: time 16-20 hrs

smiles.representation: CC[C@H]1OC(=O)C[C@@H](O)[C@H](C)[C@@H](O[C@@H]2O[C@H](C)[C@@H](O[C@H]3C[C@@](C)(O)[C@@H](O)[C@H](C)O3)[C@H](N(C)C)[C@H]2O)[C@@H](CC=O)C[C@@H](C)C(=O)/C=C/C(C)=C/[C@@H]1CO[C@@H]1O[C@H](C)[C@@H](O)[C@@H](OC)[C@H]1OC
rel: >
MIC [µg/mL]: 32
--
smiles.representation: CC[C@H]1OC(=O)C[C@@H](O)[C@H](C)[C@@H](O[C@@H]2O[C@H](C)[C@@H](O)[C@H](N(C)C)[C@H]2O)[C@@H](CCN2CCCCC2)C[C@@H](C)C(=O)/C=C/C(C)=C/[C@@H]1CN1CCCCC1
rel: =
MIC [µg/mL]: 1
--
smiles.representation: C[C@@H](O)[C@H]1C(=O)N2C(C(=O)O)=C(S[C@@H]3CN[C@H](C(=O)N(C)C)C3)[C@H](C)[C@H]12
rel: <
MIC [µg/mL]: 0.0625
--
smiles.representation: CC[C@H]1OC(=O)C[C@@H](O)[C@H](C)[C@@H](O[C@@H]2O[C@H](C)[C@@H](O)[C@H](N(C)C)[C@H]2O)[C@@H](CCN(C)Cc2cn(-c3cnc4ccccc4c3)nn2)C[C@@H](C)C(=O)/C=C/C(C)=C/[C@@H]1CN1CCCCCC1
rel: =
MIC [µg/mL]: 0.5

----------
- System: Staphylococcus aureus
- assay.name: Antibacterial activity against Staphylococcus aureus ATCC 29213 incubated for 16 to 20 hrs using 10^3 CFU/ml bacterial inoculum by broth microdilution method
- Assay type: functional
- assay.context: time 16-20 hrs
Property: MIC; scope: individual compounds

smiles.representation: CC[C@H]1OC(=O)C[C@@H](O)[C@H](C)[C@@H](O[C@@H]2O[C@H](C)[C@@H](O)[C@H](N(C)C)[C@H]2O)[C@@H](CCN(C)Cc2cn(-c3cnc4ccccc4c3)nn2)C[C@@H](C)C(=O)/C=C/C(C)=C/[C@@H]1CN1CCCCCC1
unit.name: µg/mL
MIC: 0.0625

smiles.representation: CC(=O)NC[C@H]1CN(c2ccc(N3CCOCC3)c(F)c2)C(=O)O1
unit.name: µg/mL
MIC: 0.25

smiles.representation: CC[C@H]1OC(=O)C[C@@H](O)[C@H](C)[C@@H](O[C@@H]2O[C@H](C)[C@@H](O)[C@H](N(C)C)[C@H]2O)[C@@H](CCN2CCCCC2)C[C@@H](C)C(=O)/C=C/C(C)=C/[C@@H]1CN1CCCCC1
unit.name: µg/mL
MIC: 0.5

smiles.representation: CC[C@H]1OC(=O)C[C@@H](O)[C@H](C)[C@@H](O[C@@H]2O[C@H](C)[C@@H](O[C@H]3C[C@@](C)(O)[C@@H](O)[C@H](C)O3)[C@H](N(C)C)[C@H]2O)[C@@H](CC=O)C[C@@H](C)C(=O)/C=C/C(C)=C/[C@@H]1CO[C@@H]1O[C@H](C)[C@@H](O)[C@@H](OC)[C@H]1OC
unit.name: µg/mL
MIC: 0.5

Where do the numbers come from? From ChEMBL document CHEMBL5126592.
